These entries and their values trace back to patent US7365071B2.

Overview of reported IC50 across a group of compounds:
Biological target: β-lactamase Tem-1 (Escherichia coli, UniProt P62593)
Construct: The β-lactamases are isolated from bacterial strains resistant to penicillins and to cephalosporins; endogenous in cells; host or cells: E. coli 250HT21, soluble fraction of French-press lysate
Sequence (P62593 24-286 limits assumed): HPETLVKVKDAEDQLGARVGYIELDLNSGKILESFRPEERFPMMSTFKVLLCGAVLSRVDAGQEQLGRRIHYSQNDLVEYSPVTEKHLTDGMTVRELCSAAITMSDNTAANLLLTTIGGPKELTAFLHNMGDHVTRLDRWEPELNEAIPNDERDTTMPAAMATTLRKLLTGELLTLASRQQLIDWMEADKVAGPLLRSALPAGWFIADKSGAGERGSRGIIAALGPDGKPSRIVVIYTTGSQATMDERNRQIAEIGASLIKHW
Assay: Inhibitory activity for β-lactamases (nitrocefin hydrolysis)
Type: biochemical, E. coli 250HT21
Show the value, then the unit it is measured in.

Known IC50 results, listed for orientation:
>  <compound>
O=C(O)CON1C(=O)N2CC1c1ccccc1N2C(=O)NC(=O)c1ccccc1 (stereo not shown) [Example 7]

>  <IC50>
110 µM

$$$$
>  <compound>
O=C(O)CON1C(=O)N2CC1c1ccccc1N2 (stereo not shown) [Example 11]

>  <IC50>
14 µM

$$$$
>  <compound>
O=C(O)CON1C(=O)N2CC1c1ccccc1N2C(=O)NS(=O)(=O)c1ccccc1 (stereo not shown) [Example 9]

>  <IC50>
160 µM

$$$$

We now examine a further compound.
Task: Give the measured IC50 for CS(=O)(=O)N1c2ccccc2C2CN1C(=O)N2OCC(=O)O (stereo not shown) [Example 5]
Output: 570 µM

----------
Target: β-lactamase P99 (Enterobacter cloacae, UniProt P05364)
Construct: The β-lactamases are isolated from bacterial strains resistant to penicillins and to cephalosporins; endogenous in cells; host or cells: Enterobacter cloacae 293HT6, soluble fraction of French-press lysate
Sequence (P05364 21-381): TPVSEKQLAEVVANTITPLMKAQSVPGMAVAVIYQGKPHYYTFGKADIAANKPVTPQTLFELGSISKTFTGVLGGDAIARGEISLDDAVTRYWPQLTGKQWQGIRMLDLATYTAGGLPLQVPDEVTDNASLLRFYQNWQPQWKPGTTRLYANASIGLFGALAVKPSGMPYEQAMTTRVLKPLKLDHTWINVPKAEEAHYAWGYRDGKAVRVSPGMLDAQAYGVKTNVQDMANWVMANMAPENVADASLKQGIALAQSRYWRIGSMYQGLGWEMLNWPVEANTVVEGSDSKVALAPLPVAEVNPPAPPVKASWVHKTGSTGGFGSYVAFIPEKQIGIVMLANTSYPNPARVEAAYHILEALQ
Test: Inhibitory activity for β-lactamases (nitrocefin hydrolysis)
Format: biochemical
Recorded measurements of IC50, one per entry
Express your answer in µM, writing the number without its unit.

>  <molecule>
O=C(O)CON1C(=O)N2CC1c1ccccc1N2C(=O)NS(=O)(=O)c1ccccc1 (stereo not shown)

>  <IC50, µM>
180

$$$$
>  <molecule>
O=C(O)CON1C(=O)N2CC1c1ccccc1N2 (stereo not shown)

>  <IC50, µM>
15

$$$$
>  <molecule>
O=C(O)CON1C(=O)N2CC1c1ccccc1N2C(=O)NC(=O)c1ccccc1 (stereo not shown)

>  <IC50, µM>
63

$$$$

Task: Report IC50 on β-lactamase P99 (Enterobacter cloacae, UniProt P05364) for this entry: CS(=O)(=O)N1c2ccccc2C2CN1C(=O)N2OCC(=O)O (stereo not shown)
Output: 460

----------
Target: β-lactamase Tem-1 (Escherichia coli)
Construct: The β-lactamases are isolated from bacterial strains resistant to penicillins and to cephalosporins; endogenous in cells; host or cells: E. coli 250HT21, soluble fraction of French-press lysate
Test: Inhibitory activity for β-lactamases (nitrocefin hydrolysis)
Type: biochemical, E. coli 250HT21
Details: after 5 min of preincubation with the enzyme; 100 μM nitrocefin, 50 mM sodium phosphate buffer pH 7.0, 37° C.; read-out: IC50 nM/TEM1
property label: IC50 (nM)
Express your answer in nM, writing the number without its unit.

Take a look at these entries with their results.
>  <molecule>
C=CCON1C(=O)N2CC1c1ccccc1N2Cc1cccnc1 (stereo not shown)

>  <study system>
β-lactamase Tem-1 (Escherichia coli)

>  <endpoint value>
26000

$$$$
>  <molecule>
CN1c2ccccc2C2CN1C(=O)N2OS(=O)(=O)O (stereo not shown)

>  <study system>
β-lactamase Tem-1 (Escherichia coli)

>  <endpoint value>
12000

$$$$
>  <molecule>
C=CCON1C(=O)N2CC1c1ccccc1N2C(=O)NS(=O)(=O)c1ccccc1 (stereo not shown)

>  <study system>
β-lactamase Tem-1 (Escherichia coli)

>  <endpoint value>
450000

$$$$

Next item in the queue.
Task: Answer briefly: IC50 recorded on β-lactamase Tem-1 (Escherichia coli) for CCOC(=O)CN1c2ccccc2C2CN1C(=O)N2OS(=O)(=O)O (stereo not shown)
Output: 7500
